Provenance of the data: patent US20250304707A1

# tested_on: biotinylated human BCMA (human) (UniProt Q02223)
# Sequence (Q02223 1-54 limits assumed): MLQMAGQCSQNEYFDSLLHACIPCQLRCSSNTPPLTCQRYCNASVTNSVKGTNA
# assay_method_text: BLI (Octet RED384), biotinylated human BCMA on SAX sensors, scFv 1200 nM analyte, 1:1 model
observed_property: Response (nm)
State the answer as a number, implicitly in nm.

Answered examples (3):
01-027 (scFv) (scFv, part only; not given: linker, domain order, Myc-His tags, V domains shown, not shown: another chain or arm of the molecule; small tags and cut ends) VH: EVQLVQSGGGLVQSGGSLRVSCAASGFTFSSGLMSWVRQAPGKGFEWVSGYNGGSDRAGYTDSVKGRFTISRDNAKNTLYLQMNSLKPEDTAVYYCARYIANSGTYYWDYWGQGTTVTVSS VL: QAVLTQPPSASGTPGQRVSISCSGGISNIGSNIVNWYQHLPGTAPKLLIYSGNQRPSGVPDRFSGSKSGTSASLAISGLQSEDEADYYCSSWDSDLRNWVFGGGTKLTVL	0.171
01-030 (scFv) (scFv, part only; not given: linker, domain order, Myc-His tags, V domains shown, not shown: another chain or arm of the molecule; small tags and cut ends) VH: EVQLVQSGGGLVQPGGSLRVSCAASGFSFSSGLMSWVRQAPGKGFEWVSGYNGGSDRAGFADSVEGRFTISRDNAKNTLYLQMNSLKPEDTAVYYCARYIANSGTYYWDYWGQGTLVTVSS VL: QSALTQPPSASGTPGQRVTISCSGSISNIGSNTVNWYQHLPGTAPKLLIYNHNQRPSGVPDRFSGSTSGTSASLAISGLQSEDEADYFCATWDDSLSAWLFGGGTKLTVL	0.172
01-024 (scFv) (scFv, part only; not given: linker, domain order, Myc-His tags, V domains shown, not shown: another chain or arm of the molecule; small tags and cut ends) VH: EVQLVQSGGGLVQSGGSLRVSCAASGFTFSSGLMSWVRQAPGKGFEWVSCYNGGSDRAGYTDSVKGRFTISRDNAKNTLYLQMNSLKPEDTAVYYCARYIANSGTYYWDYWGQGTTVTVSS VL: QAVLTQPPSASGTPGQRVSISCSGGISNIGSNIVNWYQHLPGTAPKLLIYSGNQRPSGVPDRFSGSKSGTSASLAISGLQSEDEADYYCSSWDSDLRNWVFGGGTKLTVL	0.174

Now consider the entry below.
Entry under review: 01-026 (scFv) (scFv, part only; not given: linker, domain order, Myc-His tags, V domains shown, not shown: another chain or arm of the molecule; small tags and cut ends) VH: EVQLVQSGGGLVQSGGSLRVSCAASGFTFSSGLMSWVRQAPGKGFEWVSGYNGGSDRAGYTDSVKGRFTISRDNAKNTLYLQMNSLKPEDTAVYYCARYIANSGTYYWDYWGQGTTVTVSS VL: QSVLTQPPSVSGAPGQRVTISCTGSSSNIGAGYDVHWYQQLPGTAPKLVIYGNTNRPSGVPDRFSGSKSGTSASLAISGLQSEDEADYYCAAWDDSLNGWVFGGGTKLTVL . Reported Response?
0.115
